Tested on: SK-MEL-2
Test: NCI tumour cell line growth inhibition, 48 h
Active and inactive are the calls of the source. Rule as the data show it: active = GI50 up to about 1.1 µM and inactive = higher.
Form entry, call: pick from active, inactive

Solved cases below.
- compound: "FC(F)(F)c1ccc(C2SCc3nc4ccccc4n32)cc1 (stereo not given)"
  class assignment: "inactive"
- compound: "CCOc1ccc2c(c1)[n+]([O-])c(-c1ccc(Cl)cc1)c(N)[n+]2[O-]"
  class assignment: "inactive"
- compound: "CCN1C(=O)C(=C/C=C/c2ccc(OC)cc2)C(=O)N(CC)C1=S"
  class assignment: "inactive"
- compound: "O=C(O)CSc1ccn(Cc2ccccc2)c1"
  class assignment: "inactive"
- compound: "CC1=C(C(=O)CC(=O)C(=O)Nc2ccccc2C)Sc2ccccc2N1"
  class assignment: "inactive"
- compound: "CC(=O)NC(CSC1=C2NC(=O)\\C=C/C=C\\C=C/C(C)C(O)CC(=O)/C(C)=C\\CC(O)/C=C\\C(C)C(O)C(C)C=C(C)C(=O)c3c(O)c(C)cc(c3C1=O)C2=O)C(=O)O (stereo not given)"
  class assignment: "inactive"
- compound: "COc1ccc(-c2nc(N)c(C#N)c3c2CCS(=O)(=O)c2ccc(C)cc2-3)cc1OC"
  class assignment: "inactive"
- compound: "CCOC(=O)CC[C@H](NC(=O)c1nc[nH]c1[N+](=O)[O-])C(=O)OCC"
  class assignment: "inactive"
- compound: "CC(C)CCCC(C)[C@H]1CC[C@H]2n3c(nc4ccccc43)CCC[C@]12C (stereo not given in full)"
  class assignment: "inactive"
- compound: "O=C1CCCC1CN1CCCC1 (stereo not given)"
  class assignment: "inactive"

Check the results log: what was the call for C[C@@]1(O)CC[C@]2(C)C3CCCC3[C@H]12 (stereo not given in full) ?
inactive

Short answer needed: outcome of this test for `CC(C)(CN1CCCCC1)C(=O)/C=C/c1ccc(/C=C/C(=O)C(C)(C)CN2CCCCC2)cc1` ?
inactive

Would you mind telling me which call this test gave `O=C(O)CSc1nnc(-c2ccc(O)cc2)[nH]1` ?
inactive

Reference for the values: ChEMBL document CHEMBL1201862
